Cited source: the supplement of paper PMC12632987

TARGET_SYSTEM: T1, USP38, Q8NB14
T1 chain: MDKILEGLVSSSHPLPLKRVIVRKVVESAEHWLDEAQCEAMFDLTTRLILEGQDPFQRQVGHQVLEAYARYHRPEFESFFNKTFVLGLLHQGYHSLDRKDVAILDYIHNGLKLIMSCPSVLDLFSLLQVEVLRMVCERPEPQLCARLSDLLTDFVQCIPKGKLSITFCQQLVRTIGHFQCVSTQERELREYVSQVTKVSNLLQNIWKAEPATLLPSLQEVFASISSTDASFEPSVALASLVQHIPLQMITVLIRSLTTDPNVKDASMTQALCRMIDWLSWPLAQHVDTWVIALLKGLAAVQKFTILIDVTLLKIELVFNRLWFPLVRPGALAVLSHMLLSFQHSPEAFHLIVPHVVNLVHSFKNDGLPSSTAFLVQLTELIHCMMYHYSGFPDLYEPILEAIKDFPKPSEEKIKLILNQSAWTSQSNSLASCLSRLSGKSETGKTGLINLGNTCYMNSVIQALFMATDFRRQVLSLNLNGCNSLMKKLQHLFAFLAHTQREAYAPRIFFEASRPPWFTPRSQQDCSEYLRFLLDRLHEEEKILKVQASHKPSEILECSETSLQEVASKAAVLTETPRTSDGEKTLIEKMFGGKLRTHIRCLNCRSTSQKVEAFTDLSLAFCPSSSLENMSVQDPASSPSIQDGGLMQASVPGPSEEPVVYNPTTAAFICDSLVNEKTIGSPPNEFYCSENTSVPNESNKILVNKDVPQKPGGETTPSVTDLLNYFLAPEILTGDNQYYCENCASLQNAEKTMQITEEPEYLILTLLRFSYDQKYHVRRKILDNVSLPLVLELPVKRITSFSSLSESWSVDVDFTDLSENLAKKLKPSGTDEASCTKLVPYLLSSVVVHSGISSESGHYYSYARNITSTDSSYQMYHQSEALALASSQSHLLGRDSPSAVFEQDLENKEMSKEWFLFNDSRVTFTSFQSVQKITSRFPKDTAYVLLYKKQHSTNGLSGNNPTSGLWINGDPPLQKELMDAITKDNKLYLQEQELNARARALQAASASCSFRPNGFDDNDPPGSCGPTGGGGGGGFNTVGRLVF
ASSAY_INFO: median log2 fold change of GCK-ALFA target abundance (FLAG IP / Myc IP barcode read proportion) (log2 ratio); each designed protein is fused to an ALFA-tag nanobody in HEK293 cells to bring the named protein to FLAG-tagged glucokinase (GCK); Myc marks an untargeted standard; higher = target protein stabilised (more abundant)
CONDITION: target protein: 3xFLAG-MCP-GCK-ALFA reporter; HEK293 landing pad (RPLP)
Is median log2 fold change at least -0.2? Then rule met. If not, rule not met.

| BINDER | CLASS_LABEL |
| --- | --- |
| usp_38_diff_out_18_14_293 (protein) DAELSAAERSALATLRTDVAADTARTIALLKRVKDDPERVDRVVERARRNLAGVRAFAEEVLREAEERGDEETVAAARELLAAIDAAEAAVAAAAAAVRA | rule not met |
| usp_38_diff_out_1_101_12 (protein) LEAELAKAREAFRAAVAEVEAVLEEAEALAKAAGDAARAARWARQLAAVRAWRADLERTLEEIAAQDLESALELAKAALENAKTLLAEAKAELAAYKAKL | rule met |
| usp_38_diff_out_3_65_539 (protein) KVEELLERAQEHLEKAEELVEGLRERTATDPTLTIDEVVAMLDEAADHLVAAAQDIEEAKKLDPDEEQQERLEELQERLDRLIDEYERAGREAFLAVGER | rule not met |
| usp_38_diff_out_18_14_356 (protein) SEEEREATRLFIEARLAAAELVNADADKIIAYEKKHKNRSADTIEMMRGGLAAMAAELEEDLKLAKELGDEELAARLAAAQAELKARAAEFDALLAEKKA | rule met |
| usp_38_diff_out_3_65_535 (protein) KIEELLKEAEKYLEEAEKLVEELRRRVESDPTLTIDELNARLDEAADLIVKAGQKIREAKKLNPDEEQKKKLKELEKRLDEVLKKYREAAEEGFLRVAER | rule not met |
| usp_38_diff_out_5_164_599 (protein) SLEEYLRRMEEIREKLIKELKELLEEAKKNPEKLEEIKKEVEKKTEEALNEMNEITTAALEAYPERAEEILRHYSEQVEKMLTEYQEVMEELEKLEKEKK | rule not met |
| usp_38_diff_out_15_91_159 (protein) LESKLEAARGVAAWAEEMAARARELGLEEEAALFEEVAAAARELAELLEKIIKLKKEGADPKEIEAARKEAKAAEARLNELLSRAVPAAARVLLAEQERE | rule met |
| usp_38_diff_out_1_153_19 (protein) SELEELKKELEKIKEEAKKLKEEIEKLIKEGKMTREKVDEYADKLGELAKRFREIRSKLAQNPEAYKELKELLKETEKELNEAVDALNEAGRLVFLKEAE | rule met |
| usp_38_diff_out_15_91_162 (protein) LESKLQAARGTADYAREMQERAEELGLEEEAALLQKVRDAAEELAKLYEELIALQKAGADQAEIDKVRKEAKKLLEELNKLISEAVPAAARILLKEQERE | rule not met |
| usp_38_diff_out_2_35_490 (protein) MEEEEAFRKKVKEELDKMQDEAHEATTETLELLAEADAPLERFDELMRKYDEFMEAAAKTYKLIEEGASKEEIEKALKEAREKYKEFMEFAEKLKKEVAA | rule met |
| usp_38_diff_out_18_28_412 (protein) SAAAVQATIDQMKADLDALIDEANEVSEKAFLKYGEDPSSTELLAAVNELWDHLGAAAQAVNDARRNRDNEAAVAAKAAEFKKHADKAKEKIAEIKKLIA | rule met |
| usp_38_diff_out_16_37_206 (protein) AEKLLAEFKAFVEEIIERARRLAEEARRLAEEGAPIEEIERVLRELEELLDELVERTTEVLEKVPEHADEILAEYDRAATEIAEAGAEIRKALRERKEKE | rule met |
| usp_38_diff_out_18_28_427 (protein) ALAANQATIEKARAEADKLIDESNKILTEAYLAYHEDPSSKELLEAAKKLSDALGKAAQAVNDMRAHRHDAAAVAKHAKEFEKAAKEAKKAIEEIKKLLK | rule met |
| usp_38_diff_out_1_153_23 (protein) MKEEELRKRLEEIKKKAEELKKEAEALLKSGNATREKVDALADKLGALAVELRELKALAAQDPEVYKALKPLFKETEKALNEAVDALNEAARQVFLKEAE | rule met |
| usp_38_diff_out_14_2_98 (protein) AEEELKKATEETLKVLDEAIKKAKELKERVKKDPSLAEEAREELFKAWDKAADAVGELAKLMEEHRELRELNKKAVEEVNKKLTELTEELLEALELAAEA | rule not met |
| usp_38_diff_out_18_30_434 (protein) EEEDEETEEYIRNKLLEFTAESTRDLAERVRRRLPDSPRAREIARLLEEASELLKKRTPEALEEAARLLERALELAEADPRATDRLLTSLRGLLTVVKEL | rule met |
| usp_38_diff_out_18_28_375 (protein) SAATRAALEAELAALEARLDALIDEYVALANRVYEEHPDDAEALALLDAAADALGAAAAALAEARRLLRAGGDPAEVRARLAEARAALAEAEALLAQLKA | rule not met |
